This collection of values is drawn from the supplement of paper PMC10065799.

target: Hck (UniProt P08631); experiment: phosphorylation enrichment, bacterial display (enrichment ratio); higher = better substrate or ligand; peptides without Tyr show the background;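 note: 11-residue human phosphosite peptides and single-mutation variants displayed on the E. coli surface, counted by deep sequencing, each peptide's frequency after selection divided by its frequency in the unselected input library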;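 note: frequency after pTyr selection over input frequency; kinase dosed for 20-30% of maximal phosphorylation in three min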
Sequence (P08631 whole entry, looked up): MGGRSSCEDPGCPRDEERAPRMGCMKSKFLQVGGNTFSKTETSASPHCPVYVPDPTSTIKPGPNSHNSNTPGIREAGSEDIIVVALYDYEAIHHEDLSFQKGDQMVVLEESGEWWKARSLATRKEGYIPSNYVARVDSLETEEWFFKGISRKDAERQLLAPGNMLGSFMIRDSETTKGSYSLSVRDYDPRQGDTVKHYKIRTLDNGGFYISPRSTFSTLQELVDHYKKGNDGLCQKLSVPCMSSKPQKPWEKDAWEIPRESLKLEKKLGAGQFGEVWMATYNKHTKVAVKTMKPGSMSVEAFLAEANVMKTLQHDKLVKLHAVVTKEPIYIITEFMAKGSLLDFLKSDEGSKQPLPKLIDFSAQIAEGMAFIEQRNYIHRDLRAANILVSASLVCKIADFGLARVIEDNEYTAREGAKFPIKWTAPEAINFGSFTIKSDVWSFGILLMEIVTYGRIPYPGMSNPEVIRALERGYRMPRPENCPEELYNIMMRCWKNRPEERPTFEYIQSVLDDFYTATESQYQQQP
OBSERVABLE: phosphorylation enrichment
I'd appreciate a reply containing only the number, no unit.

1. VGSEDYGRDLT [SPTAN1_Y1792] | 0.592
2. EFISEHCGEII [EZH2_Y641_Y641H] | 0.602

Now take the following sequence into account.
Query: Under Hck (UniProt P08631): phosphorylation enrichment value of AIYRRYSKFFD [SH3PXD2B_Y45] ?
Reply: 0.594

* * *

// phosphorylation enrichment lookup, one value per entry
biological target: FGFR3 (UniProt P22607); test: phosphorylation enrichment, bacterial display (enrichment ratio); higher = better substrate or ligand; peptides without Tyr show the background
Sequence (P22607 whole entry, looked up): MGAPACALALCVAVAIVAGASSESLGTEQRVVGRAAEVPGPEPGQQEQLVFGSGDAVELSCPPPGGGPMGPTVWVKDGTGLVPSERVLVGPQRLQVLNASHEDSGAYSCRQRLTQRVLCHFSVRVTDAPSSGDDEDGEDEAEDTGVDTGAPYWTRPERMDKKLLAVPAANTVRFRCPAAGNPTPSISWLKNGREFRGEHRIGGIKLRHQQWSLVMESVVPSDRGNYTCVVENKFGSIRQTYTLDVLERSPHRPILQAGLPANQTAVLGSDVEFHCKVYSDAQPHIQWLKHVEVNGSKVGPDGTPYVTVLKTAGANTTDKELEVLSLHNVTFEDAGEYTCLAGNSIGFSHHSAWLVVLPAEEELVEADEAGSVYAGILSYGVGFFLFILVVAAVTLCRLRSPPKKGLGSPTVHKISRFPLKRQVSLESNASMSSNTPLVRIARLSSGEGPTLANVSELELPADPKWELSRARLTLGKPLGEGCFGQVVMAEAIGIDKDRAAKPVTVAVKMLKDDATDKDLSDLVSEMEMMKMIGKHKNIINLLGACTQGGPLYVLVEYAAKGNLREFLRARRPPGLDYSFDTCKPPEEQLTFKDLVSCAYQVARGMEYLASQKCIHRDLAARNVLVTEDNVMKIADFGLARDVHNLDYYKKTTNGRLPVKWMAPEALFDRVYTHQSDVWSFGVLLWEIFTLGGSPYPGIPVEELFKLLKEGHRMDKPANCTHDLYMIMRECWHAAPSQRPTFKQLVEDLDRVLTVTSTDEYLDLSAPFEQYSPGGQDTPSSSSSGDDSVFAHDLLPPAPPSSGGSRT

Query: Consider the sequence VRFVDYVLFRS [FAM189B_Y361_S358F] and give its measured phosphorylation enrichment.
Reply: 1.65

Query: Then what about the sequence KNGSNYVVKGN [KIT_Y823_D820G] ?
Reply: 0.368

Query: Then what about the sequence IVFTSYVLTIL [TAS2R16_Y239_F240V] ?
Reply: 1.17

Query: Then what about the sequence KSVITYSPTTG [ITGB3BP_Y32] ?
Reply: 0.464

Query: Then what about the sequence FSAPNCCYRCG [PPP2CA_Y265_Y265C] ?
Reply: 0.76

Query: Then what about the sequence CTTIHYSYMCN [TP53_Y234_N235S] ?
Reply: 0.724

Query: Then what about the sequence FFWDGYMPRQF [GSS_Y270_R267W_YF] ?
Reply: 0.735

Query: Then what about the sequence TFTVSYLPDMS [FLNC_Y1602_YF] ?
Reply: 0.735

Query: Then what about the sequence IQKKYYRAILE [CHD7_Y1218] ?
Reply: 0.485

Query: Then what about the sequence ANQDDYISFRH [IMP4_Y226] ?
Reply: 0.967

Query: Then what about the sequence SLIERYEPSET [PLCD1_Y258] ?
Reply: 0.678

Query: Then what about the sequence DGNIDYAEFAK [MCFD2_Y138_Y135N] ?
Reply: 0.62

Query: Then what about the sequence MVTSGYKAKTI [EFR3A_Y447] ?
Reply: 0.375

Query: Then what about the sequence SYSGEYGGGGG [ZG16_Y30] ?
Reply: 0.552

Query: Then what about the sequence TTPGPYRSIYF [MPG_Y71] ?
Reply: 0.515

Query: Then what about the sequence QDEHGYISLCF [HSPB1_Y133_R136L] ?
Reply: 2.09

Query: Then what about the sequence VVLEDYLDIKN [CLCNKB_Y138] ?
Reply: 0.608

Query: Then what about the sequence GTCGGYCSVLG [RAB18_Y202_A198T] ?
Reply: 0.488

Query: Then what about the sequence FSALDYKIFYY [WDPCP_Y210_L205F] ?
Reply: 1.18

Query: Then what about the sequence TMKSHYMELFD [BBS2_Y644_R643H_YF] ?
Reply: 0.72

Query: Then what about the sequence SSYDIYHLSRE [KIR3DL2_Y253] ?
Reply: 2.01

Query: Then what about the sequence PFTRNYFVRAV [CYBA_Y87_YF] ?
Reply: 0.739

* * *

test system: Fer (mouse); assay: phosphorylation enrichment, bacterial display (enrichment ratio); higher = better substrate or ligand; peptides without Tyr show the background
// Condition not met strictly below 0.5 in phosphorylation enrichment; Condition met otherwise

Recorded results for 3 sequences are shown here.
1) TQTPPYVKKHR [LARP1B_Y457_P462R] | Condition met
2) IKIMGSSIRTI [IDS_Y490_Y490S] | Condition not met
3) LGSNTYPFLLM [SAG_Y120_T125M] | Condition met

Consider the additional sequence presented here.
Query: Assess whether reported phosphorylation enrichment for LARHMYDKEYY [MET_Y1230_D1228H] sits at 0.5 or higher.
Reply: Condition met

* * *

// phosphorylation enrichment lookup, one value per entry
target: Fes (UniProt P07332); test: phosphorylation enrichment, bacterial display (enrichment ratio); higher = better substrate or ligand; peptides without Tyr show the background
Sequence (P07332 whole entry, looked up): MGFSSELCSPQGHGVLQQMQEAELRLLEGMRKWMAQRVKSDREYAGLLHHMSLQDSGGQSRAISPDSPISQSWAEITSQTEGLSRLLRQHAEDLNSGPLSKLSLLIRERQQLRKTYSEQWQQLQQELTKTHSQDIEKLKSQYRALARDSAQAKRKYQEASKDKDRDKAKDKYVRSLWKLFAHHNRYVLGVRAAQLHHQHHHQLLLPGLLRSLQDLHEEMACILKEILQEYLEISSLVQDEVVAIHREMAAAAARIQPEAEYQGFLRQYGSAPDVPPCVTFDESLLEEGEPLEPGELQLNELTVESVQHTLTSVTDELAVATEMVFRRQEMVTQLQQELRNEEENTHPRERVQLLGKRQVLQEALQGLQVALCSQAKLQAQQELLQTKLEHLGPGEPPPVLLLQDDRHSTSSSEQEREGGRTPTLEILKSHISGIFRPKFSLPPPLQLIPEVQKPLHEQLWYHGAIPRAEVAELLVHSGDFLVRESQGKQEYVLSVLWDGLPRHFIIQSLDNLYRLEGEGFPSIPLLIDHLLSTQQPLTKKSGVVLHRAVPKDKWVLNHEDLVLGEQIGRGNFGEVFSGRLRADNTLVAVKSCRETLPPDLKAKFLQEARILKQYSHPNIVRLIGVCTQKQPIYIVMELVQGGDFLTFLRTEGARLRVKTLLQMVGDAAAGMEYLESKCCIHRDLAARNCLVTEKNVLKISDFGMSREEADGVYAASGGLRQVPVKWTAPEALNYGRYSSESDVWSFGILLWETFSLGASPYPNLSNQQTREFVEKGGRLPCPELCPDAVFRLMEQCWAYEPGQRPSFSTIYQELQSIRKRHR
I'd appreciate a reply containing only the number, no unit.

1) MKKKTYAMGGG [GAN_Y424_I423T] | 0.862
2) KPMDTYYDSTR [DYNC2H1_Y2230] | 0.774
3) HNLDYYKMTTN [FGFR3_Y648_K650M] | 1.04

Query: Consider the sequence FLTQHYDAKPQ [ANG_Y38] and give its measured phosphorylation enrichment.
Reply: 0.741

Query: Then what about the sequence SHSMRYFYTAV [HLA-C_Y31_D33Y] ?
Reply: 1.26

Query: Then what about the sequence MALDRYVAICK [OR2B11_Y127] ?
Reply: 0.838

Query: Then what about the sequence FCRIMYDIFPF [INTS13_Y67_YF] ?
Reply: 1.74

Query: Then what about the sequence LFSINYLHFGD [KDM4C_Y201_E206D_YF] ?
Reply: 1.56

* * *

target: Fyn (UniProt P06241); assay: phosphorylation enrichment, bacterial display (enrichment ratio); higher = better substrate or ligand; peptides without Tyr show the background
Sequence (P06241 whole entry, looked up): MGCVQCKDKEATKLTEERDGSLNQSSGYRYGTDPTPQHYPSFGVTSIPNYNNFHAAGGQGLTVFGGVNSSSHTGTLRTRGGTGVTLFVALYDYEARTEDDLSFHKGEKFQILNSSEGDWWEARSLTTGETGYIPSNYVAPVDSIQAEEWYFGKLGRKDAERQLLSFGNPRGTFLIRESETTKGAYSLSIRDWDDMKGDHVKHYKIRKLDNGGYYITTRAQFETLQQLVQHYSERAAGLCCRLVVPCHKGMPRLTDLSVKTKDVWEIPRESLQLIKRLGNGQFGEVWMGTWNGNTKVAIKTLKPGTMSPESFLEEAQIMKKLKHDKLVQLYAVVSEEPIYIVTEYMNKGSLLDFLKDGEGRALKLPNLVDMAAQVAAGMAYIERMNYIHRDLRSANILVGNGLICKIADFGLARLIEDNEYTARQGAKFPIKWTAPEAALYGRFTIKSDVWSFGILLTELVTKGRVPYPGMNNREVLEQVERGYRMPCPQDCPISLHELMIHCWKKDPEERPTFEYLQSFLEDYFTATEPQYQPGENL
// NOT MET strictly below 0.5 in phosphorylation enrichment; MET otherwise

Recorded results for 4 sequences are shown here.
1. AGADGYGYLAP [FOXL2_Y186] | NOT MET
2. FNVLQYVVPKV [EIF3A_Y382_E386K] | NOT MET
3. ETKENYGKTLK [CHL1_Y291] | MET
4. VATSWYRSPEL [CDKL5_Y177_R175S] | NOT MET

Query: Assess whether reported phosphorylation enrichment for NKFTTYLPRLP [C9orf24_Y126_YF] sits at 0.5 or higher.
Reply: NOT MET

Query: Then what about the sequence PTTKTYFLHFD [HBA1_Y43_P45L] ?
Reply: MET

* * *

// phosphorylation enrichment lookup, one value per entry
system: AncSZ; experiment: phosphorylation enrichment, bacterial display (enrichment ratio); higher = better substrate or ligand; peptides without Tyr show the background
I'd appreciate a reply containing only the number, no unit.

1) LEGEEYRMSGE [KRT3_Y511] | 1.69
2) DRIVNYSRASV [ATP7A_Y1459_I1464V] | 0.702
3) GGMAEYTRLHN [EHHADH_Y4] | 0.609

Query: Consider the sequence KMKGEYYRYLA [YWHAG_Y130_D129E] and give its measured phosphorylation enrichment.
Reply: 0.981

Query: Then what about the sequence GRDQPYSGAGD [TYRO3_Y828] ?
Reply: 0.442

Query: Then what about the sequence RSRSSYTHSLN [MYCT1_Y116_G119S] ?
Reply: 0.832

Query: Then what about the sequence ALERPYTSKHS [NANS_Y71] ?
Reply: 0.531

Query: Then what about the sequence VRFVDYVLFRS [FAM189B_Y361_S358F] ?
Reply: 1

Query: Then what about the sequence IVAREYYSKAD [CAMK2B_Y107_E110K] ?
Reply: 0.768

Query: Then what about the sequence AEQDWYHGAIP [FER_Y461] ?
Reply: 1.06

Query: Then what about the sequence SVTCTYSAALN [TP53_Y126_P128A] ?
Reply: 1.31

Query: Then what about the sequence IGGHAYGDQFR [IDH1_Y135_R132G_YF] ?
Reply: 0.464

Query: Then what about the sequence LYSNAYLSDLA [ALDH1A1_Y119_N121S] ?
Reply: 1.68

* * *

molecular target: Fes (UniProt P07332); experiment: phosphorylation enrichment, bacterial display (enrichment ratio); higher = better substrate or ligand; peptides without Tyr show the background
// f strictly below 1 in phosphorylation enrichment; t otherwise

Recorded results for 10 sequences are shown here.
1. AGKEEYSAMRD [HRAS_Y64_Q61K] | f
2. IMAYFYMCDRA [CASD1_Y382] | t
3. DRFDNYIEKVR [DES_Y122_A120D] | f
4. QGLRLYRPHLA [BTK_Y617] | t
5. PVQAAYKKVVA [HBB_Y131_Q132K] | f
6. WRVISYHVVVW [ATP13A2_Y50_G49S] | t
7. KRFRIYHLAIS [BRCA2_Y3009_T3013I_YF] | f
8. LHAAAYWNALA [UQCRC2_Y182_R183W] | f
9. NLNGKYNKPRA [ANGPTL3_Y417] | f
10. GIFEDYVEGLR [MYL6_Y89_T85I_YF] | t

Query: Assess whether reported phosphorylation enrichment for KNGSNYVVKGN [KIT_Y823_D820G] sits at 1 or higher.
Reply: f

Query: Then what about the sequence SADIAYNFRHG [PAH_Y166_F161S_YF] ?
Reply: f

Query: Then what about the sequence GGFTCYCDGKK [PROS1_Y266_YF] ?
Reply: t

Query: Then what about the sequence PTTKTYFPRFD [HBA1_Y43_H46R] ?
Reply: f

Query: Then what about the sequence CLEKEYFDQHF [NPC1_Y394_R389C] ?
Reply: t
